Target: factor Xa (Homo sapiens, UniProt P00742)
Sequence (P00742 235-488 limits assumed): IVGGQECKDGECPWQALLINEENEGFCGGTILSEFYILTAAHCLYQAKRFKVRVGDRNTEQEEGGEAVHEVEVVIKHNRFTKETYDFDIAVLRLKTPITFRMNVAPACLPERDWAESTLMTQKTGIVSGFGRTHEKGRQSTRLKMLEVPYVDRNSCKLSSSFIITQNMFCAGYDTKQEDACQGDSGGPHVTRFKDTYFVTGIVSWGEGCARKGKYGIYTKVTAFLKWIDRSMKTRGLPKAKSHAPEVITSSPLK
Sequence (P00742 41-179 limits assumed): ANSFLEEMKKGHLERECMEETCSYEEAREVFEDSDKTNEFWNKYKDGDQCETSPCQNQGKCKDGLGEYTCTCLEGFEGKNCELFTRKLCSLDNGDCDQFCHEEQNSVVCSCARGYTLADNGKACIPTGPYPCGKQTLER
Experiment: Factor Xa assay (Test 1a), chromogenic
Type: biochemical
Set-up: purchased Enzyme Research Laboratories, Inc; South Bend, Ind
Settings: in vitro factor Xa assay Test 1a; human factor Xa 0.5 nM, substrate S-2765 140 μM, 25° C.; Ki from IC50 corrected for substrate competition
From the text: The ability of a compound of formula (I) to inhibit factor Xa, thrombin, plasmin, elastase, and trypsin may be assessed by determining the concentration of compound of formula (I) that inhibits enzyme activity by 50% (IC50). Purified enzymes are used in chromogenic assays. To determine the inhibition constant, the IC50 value is corrected for competition with substrate using the formula: Ki=IC50×(1/{1+((substrate concentration)/substrate Km)}) where Km is the Michaelis-Menten constant. Y. -C. […]
Structures can show the parent of a compound that is named as a salt.
pKi values by entry
pKi here: minus log base 10 of the concentration, concentration in moles per litre.

molecule: N=C(N)NCCC[C@H](NC(=O)[C@@H](NC(=O)C(Cc1ccc(C(=N)N)cc1)C1CCCCC1)C1CCCCC1)C(=O)NCCc1ccccc1 (mixture of isomers) [Example 184, trifluoroacetic acid salt]
pKi: 7.72

molecule: N=C(N)NCCCC(NC(=O)C(NC(=O)C(Cc1ccc(C(=N)N)cc1)c1cccc(Cl)c1)C1CCCCC1)C(N)=O (single isomer, unassigned; more polar) [Example 125]
pKi: 5.59

molecule: CCCCOC(=O)[C@H](CCCNC(=N)N)NC(=O)[C@@H](NC(=O)C(Cc1ccc(C(=N)N)cc1)C1CCCCC1)C1CCCCC1 (single isomer, unassigned; less polar)
pKi: 7.66

molecule: CC(Cc1ccc(C(=N)N)cc1)(C(=O)N[C@H](C(=O)N[C@@H](CCCNC(=N)N)C(N)=O)C1CCCCC1)c1ccccc1 (mixture of isomers) [Example 96, trifluoroacetic acid salt]
pKi: 8.08

molecule: CC(=N)N1CCC(CNC(=O)[C@@H](NC(=O)C(Cc2ccc(C(=N)N)cc2)c2cccc(C(F)(F)F)c2)C2CCCCC2)CC1 (single isomer, unassigned; less polar)
pKi: 8.10

Tell me its pKi given N=C(N)NCCCC(NC(=O)C(NC(=O)C(Cc1ccc(C(=N)N)cc1)C1CCCCC1)C1CCCCC1)C(N)=O (single isomer, unassigned; less polar) [Example 4] as the entry.
8.70

Consider the molecule N=C(N)NCCC[C@H](NC(=O)[C@@H](NC(=O)C(Cc1ccc(C(=N)N)cc1)c1ccc2ccccc2c1)C1CCCCC1)C(N)=O (mixture of isomers) [Example 95, trifluoroacetic acid salt] . State its measured pKi.
8.04

Please give measured pKi of the following entry: CC(Cc1ccc(C(=N)N)cc1)(C(=O)N[C@@H](COCc1ccccc1)C(=O)N[C@@H](CCCNC(=N)N)C(N)=O)c1ccccc1 (mixture of isomers) [Example 70, trifluoroacetic acid salt]
7.52

Please look at this molecule and report its pKi: N=C(N)NCCC[C@H](NC(=O)[C@H](Cc1ccccc1)NC(=O)C(Cc1ccc(C(=N)N)cc1)c1cccnc1)C(N)=O (mixture of isomers) [Example 106, trifluoroacetic acid salt]
7.17

// fetch pKi given entry N=C(N)c1ccc(CNC(=O)C(NC(=O)C(Cc2ccc(C(=N)N)cc2)c2cccc(Br)c2)C2CCCCC2)cc1 (single isomer, unassigned; less polar)
8.40
